test system: OVCAR-8; assay: In vitro anti-cancer activity against OVCAR 8(Ovarian) human tumor cell lines; type: functional
Provide the reported log10 of GI50 of each item.
Hello, just confirming the data are log10 of GI50 with units of µM.

// query log10 of GI50 value for entry CC[C@@]1(O)C(=O)OCc2c1cc1n(c2=O)C(CC(=O)OCCF)c2cc3ccccc3nc2-1 (some centres not stated)
-1.40

Now try CC[C@@]1(O)C(=O)OCc2c1cc1n(c2=O)C(CC(=O)N2CCCCC2)c2cc3ccccc3nc2-1 (some centres not stated) .
0.55

Please answer likewise for CC[C@@]1(O)C(=O)OCc2c1cc1n(c2=O)C(CC(N)=O)c2cc3ccccc3nc2-1 (some centres not stated)
1.30

Also, CC[C@@]1(O)C(=O)OCc2c1cc1n(c2=O)C(CC(=O)N2CCCC2)c2cc3ccccc3nc2-1 (some centres not stated) please.
-0.12

Can you check CC[C@@]1(O)C(=O)OCc2c1cc1n(c2=O)C(CC(C)=O)c2cc3c(O)cccc3nc2-1 (some centres not stated) next?
0.54

Would you mind doing CC[C@@]1(O)C(=O)OCc2c1cc1n(c2=O)C(CC(=O)OCCO)c2cc3ccccc3nc2-1 (some centres not stated) as well?
-0.60

What about CC[C@@]1(O)C(=O)OCc2c1cc1n(c2=O)C(CC(C)=O)c2cc3cc([N+](=O)[O-])ccc3nc2-1 (some centres not stated) ?
0.05

Another molecule to check: CC[C@@]1(O)C(=O)OCc2c1cc1n(c2=O)C(CC(=O)OC)c2cc3ccccc3nc2-1 (some centres not stated)
1.21

Quick one: CC[C@@]1(O)C(=O)OCc2c1cc1n(c2=O)C(CC(=O)OCC(F)(F)F)c2cc3ccccc3nc2-1 (some centres not stated)
0.05

Similarly, CC[C@@]1(O)C(=O)OCc2c1cc1n(c2=O)C(CC(=O)OC)c2cc3c(O)cccc3nc2-1 (some centres not stated) ?
0.24

Entry CC[C@@]1(O)C(=O)OCc2c1cc1n(c2=O)C(CC(=O)OC)c2cc3cc([N+](=O)[O-])ccc3nc2-1 (some centres not stated) please
1.10

Do the same for CC[C@@]1(O)C(=O)OCc2c1cc1n(c2=O)C(CC(C)=O)c2cc3ccccc3nc2-1 (some centres not stated) please
0.87

----------
tested on: DU-145; experiment: In vitro anti-cancer activity against DU-145 (Prostate) human tumor cell line; assay type: functional
readout type: GI50
Answer shape: numeric part, then the unit.

Bench note: what GI50 did CC[C@@]1(O)C(=O)OCc2c1cc1n(c2=O)C(CC(=O)OCCO)c2cc3ccccc3nc2-1 (some centres undefined) show?
1 µM

Another compound to look at: CC[C@@]1(O)C(=O)OCc2c1cc1n(c2=O)Cc2cc3c(CN(C)C)c(O)ccc3nc2-1
0.04 µM

Please answer likewise for CC[C@@]1(O)C(=O)OCc2c1cc1n(c2=O)C(CC(=O)N2CCCC2)c2cc3ccccc3nc2-1 (some centres undefined)
0.45 µM

Ok, now CC[C@@]1(O)C(=O)OCc2c1cc1n(c2=O)C(CC(C)=O)c2cc3cc([N+](=O)[O-])ccc3nc2-1 (some centres undefined)
0.28 µM

----------
What GI50 was measured for each of the following?
system: DU-145; assay: In vitro anti-cancer activity against DU-145 (Prostate) human tumor cell line; assay type: functional
All answers are understood in µM, so give the number only.

Recall the recorded GI50 for CC[C@@]1(O)C(=O)OCc2c1cc1n(c2=O)C(CC(=O)OCC(F)(F)F)c2cc3ccccc3nc2-1 (some centres undefined) with DU-145 and state it.
0.28

Likewise for CC[C@@]1(O)C(=O)OCc2c1cc1n(c2=O)C(CC(=O)OC)c2cc3ccccc3nc2-1 (some centres undefined) ?
15.5

Try this compound too: CC[C@@]1(O)C(=O)OCc2c1cc1n(c2=O)C(CC(=O)OC)c2cc3c(O)cccc3nc2-1 (some centres undefined)
0.6

# repeat for CC[C@@]1(O)C(=O)OCc2c1cc1n(c2=O)C(CC(=O)N2CCCCC2)c2cc3ccccc3nc2-1 (some centres undefined)
0.32

Also check CC[C@@]1(O)C(=O)OCc2c1cc1n(c2=O)C(CC(=O)OCCF)c2cc3ccccc3nc2-1 (some centres undefined)
0.1

Do the same for CC[C@@]1(O)C(=O)OCc2c1cc1n(c2=O)C(CC(C)=O)c2cc3c(O)cccc3nc2-1 (some centres undefined) please
2

Next: CC[C@@]1(O)C(=O)OCc2c1cc1n(c2=O)C(CC(C)=O)c2cc3ccccc3nc2-1 (some centres undefined)
3.92

Lookup CC[C@@]1(O)C(=O)OCc2c1cc1n(c2=O)C(CC(=O)OC)c2cc3cc([N+](=O)[O-])ccc3nc2-1 (some centres undefined)
8.51

For CC[C@@]1(O)C(=O)OCc2c1cc1n(c2=O)C(CC(N)=O)c2cc3ccccc3nc2-1 (some centres undefined) then?
12

The measurements presented in this section are drawn from ChEMBL document CHEMBL1131745.
